Please provide measured PBM binding z-score for the entries that follow.
Test system: LXRb homodimer (NR concentration 270 nM)
Test: PBM binding z-score (relative to random genomic background probes); higher = stronger binding; sequences stand for … in GC…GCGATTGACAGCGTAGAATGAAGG
Reply: number alone, nothing else.

So what does the record say about PBM binding z-score for TCATATAGGTAACCAGGTGAAAGTCCGTAAGTTA ?
0.073

Entry under review: TCTCAGAGGACACGAAAGGTCAGAGCTCGACATC . Reported PBM binding z-score?
0.409

Would you kindly share the measured PBM binding z-score for TATAGTTGGTCACGGAGGTCACACACGACGGGTA ?
1.25

Dear colleague, I am looking for the recorded PBM binding z-score of the following sequence: CAAACTAGGTCAACGGTCAAAGTCGAGCCAACCA
0.978

Fill blank: measured PBM binding z-score of the sequence GATACAGGGTCAAGGCCAGAGCACGCGTATTGAT is ____.
-0.301

Entry ACTGGGAGGACAAAGGTCAGAGCTACGCCAGTGA : reported PBM binding z-score = ?
1.04

Entry under review: TCTAGTTGGTCACGGAGGTCTCACACGACGGGTA . Reported PBM binding z-score?
-0.332

Please give the measured PBM binding z-score for this sequence: ATATGTAGGTTATCGGGTCATTGAGTTTGCGCAT
1.33

Query: PBM binding z-score; subject: CAAACCAGGTCACCGGAAGGTCAAAGTCCGCATG
1.71

Item under review: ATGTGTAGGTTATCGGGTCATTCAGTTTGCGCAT . Reported PBM binding z-score?
1.26

Recorded PBM binding z-score for ATCGCTAGGTAAGACTCAGTTCAGTGAAGAACGC , please?
-0.581

// query PBM binding z-score value for entry CCTTACGGGTCAACGTTATAGCACGGGTGGTACG
-0.125
